The reported numbers originate from paper PMC10155203.

Test: Study 2: PPI (rabeprazole) interaction clinical study, single oral dose of encorafenib, plasma PK and safety
Type: in vivo, human
Settings: human, plasma, oral, study 2, encorafenib 100 mg + rabeprazole, median (range); read-out: Tmax
Reported Metric: Tmax (h)
Kindly answer with a numeric value in h, unit omitted.

Any idea what Tmax was measured for COC(=O)N[C@@H](C)CNc1nccc(-c2cn(C(C)C)nc2-c2cc(Cl)cc(NS(C)(=O)=O)c2F)n1 [encorafenib, Encorafenib] ? 2

###

Experiment: Study 2: PPI (rabeprazole) interaction clinical study, single oral dose of encorafenib, plasma PK and safety
Assay type: in vivo, human
Details: human, plasma, oral, 300 mg
Reported Metric: Cmax (ng/mL)
Entry rule: numbers only, all in ng/mL.

Item under review: COC(=O)N[C@@H](C)CNc1nccc(-c2cn(C(C)C)nc2-c2cc(Cl)cc(NS(C)(=O)=O)c2F)n1 . Reported Cmax? 3900
